# Test system: A2058
# ASSAY DETAILS: Selectivity index, ratio of IC50 for human IMR90 cells to IC50 for human A2058 cells
# Assay type: functional
Note to self: use Satisfied only for Ratio IC50 readings below 0.8; a reading exactly at 0.8 still gets Not satisfied.

Example entries begin here.
C#CC(O)/C=C/CCCCCCCCCCCC#CCCCCCCCCCCCC(O)C#CC#CCO (stereo not drawn)    Not satisfied
C#CC(O)/C=C/CCCCCCCC#C/C=C\CCCCCCCCCCCCCC(O)C#CC#CCO (stereo not drawn)    Satisfied
C#CC(O)/C=C/CCCCCCCCC/C=C\CCCCCCCCCCCC(O)C#CC#CCO (stereo not drawn)    Not satisfied
C#C[C@H](O)/C=C/CCCCCCCCCC#CCCCCCCCCCCCC/C=C\C#CC(=O)O    Satisfied
C#C[C@H](O)/C=C/CCCCCCCC#C/C=C\CCCCCCCCCCCC/C=C\C#CC(=O)O    Satisfied
C#C[C@H](O)/C=C/CCCCCCCCCCC/C=C/C(O)CCCCCCCCC/C=C\C#CC(=O)O (stereo partly drawn)    Satisfied

Let us examine a further case.
Req: Bench note: check whether CC[C@]1(O)C[C@@H]2CN(CCc3c([nH]c4ccccc34)[C@@](C(=O)OC)(c3cc4c(cc3OC)N(C)[C@H]3[C@@](O)(C(=O)OC)[C@H](OC(C)=O)[C@]5(CC)C=CCN6CC[C@]43[C@@H]65)C2)C1 shows Ratio IC50 below 0.8
Resp: Not satisfied
